- test_details: NCI Yeast Anticancer Drug Screen. Data for the sgs1 mgt1 strain (AID 161);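 note: 0% = growth of cultures given vehicle only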
- test_parameters: S. cerevisiae sgs1 mgt1 strain, at 50.0 µM, hits give high values
About 79,000 compounds went through this panel and 15% of them were active in at least one assay; those are over-represented in the sample as a whole.
readout_kind: growth inhibition (%)

{"compound": "O=C(CC[n+]1ccccc1)NCCCCCCNC(=O)CC[n+]1ccccc1", "value": -23.5}
{"compound": "O=c1c2ccccc2nc(-c2ccc(Br)cc2)n1NC1OC(CO)C(O)C(O)C1O (stereo unspecified)", "value": 5.2}
{"compound": "COc1cc2c(cc1N)-c1ccc(N)cc1C2O (stereo unspecified)", "value": -9.05}
{"compound": "CSc1ccc2c(cc1=O)[C@@H](NC(=O)c1ccc([N+](=O)[O-])cc1)CCc1cc(O)c(O)c(O)c1-2", "value": 39.2}
{"compound": "CN1C(c2ccco2)NC(=O)C12CCN(Cc1ccccc1)CC2 (stereo unspecified)", "value": 15.2}
{"compound": "O=C1C=C[C@@H](COC2OC(CO)C(O)C(O)C2O)O1 (stereo partly specified)", "value": 5.25}

----------
- test_details: NCI Yeast Anticancer Drug Screen. Data for the mec2-1 strain (AID 157)
- test_parameters: S. cerevisiae mec2-1 strain, at 50.0 µM, hits give high values
About 79,000 compounds went through this panel and 15% of them were active in at least one assay; those are over-represented in the sample as a whole.

{"compound": "CC(=O)C1=C(C)C2CC3(C)CC(C2(C)C1)C3(C)C (stereo not drawn)", "growth inhibition (%)": -17.1}
{"compound": "NC(=O)c1cc(OCc2ccccc2)nc2nc(Cl)nc(N)c12", "growth inhibition (%)": 14.6}
{"compound": "OCCO", "growth inhibition (%)": -24.1}

----------
- test_details: NCI Yeast Anticancer Drug Screen. Data for the rad50 strain (AID 155);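 note: 0% = growth of vehicle-only cultures of the same strain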
- test_parameters: S. cerevisiae rad50 strain growth inhibition; at 50.0 µM; hits give high values
- Description: Growth inhibition of yeast strains with defined genetic alterations is measured as a screen for potential anti-cancer activity. Selected strains with alterations in DNA damage repair or cell cycle control were exposed to compounds and growth inhibition was measured relative to vehicle treated controls. The strain used in this assay is rad50
This is part of a sample that, as a whole, favours compounds with a hit. Of some 79,000 tested, about 15% had one in any assay.
Listed next: entries and their corresponding growth inhibition.
readout_kind: growth inhibition (%)

{"molecule": "COC1OC(C(C)O)C2OC(C)(C)OC12 (configuration not stated)", "readout_kind": "growth inhibition", "value": 40.5}
{"molecule": "Nc1nc(Sc2ccccn2)ccc1[N+](=O)[O-]", "readout_kind": "growth inhibition", "value": 0.25}
{"molecule": "O=S(=O)(OCCCC1CC2C=CC1C2)c1ccc(Br)cc1 (configuration not stated)", "readout_kind": "growth inhibition", "value": -1.7}
{"molecule": "COc1ccc(C(C)(C)c2ccccc2)cc1", "readout_kind": "growth inhibition", "value": -20.1}
{"molecule": "CC(=O)NC(CCCNC(=O)OCc1ccccc1)C(=O)NCc1ccccc1 (configuration not stated)", "readout_kind": "growth inhibition", "value": -9.1}
{"molecule": "Cc1ccc(-c2nc(-c3nccc4ccccc34)oc2-c2ccccc2)cc1", "readout_kind": "growth inhibition", "value": -6}
{"molecule": "O=C(O)C(Cc1ccc(O)cc1)N=Cc1nc(-c2ccccc2)oc1O (configuration not stated)", "readout_kind": "growth inhibition", "value": -3.5}
{"molecule": "COc1ccc(NC(=O)CC(=O)NN)cc1", "readout_kind": "growth inhibition", "value": -5.4}
{"molecule": "COc1ccc2cc(C(=O)c3ccccc3)c(=O)oc2c1", "readout_kind": "growth inhibition", "value": -0.1}
{"molecule": "CC(C)C(C)(C(N)=O)C(C)C", "readout_kind": "growth inhibition", "value": 14.3}
{"molecule": "O=[N+]([O-])c1ccc(Cl)c(N=Nc2ccccn2)c1", "readout_kind": "growth inhibition", "value": 20.2}
{"molecule": "Nc1ccc(O)cc1", "readout_kind": "growth inhibition", "value": 15.2}

----------
Listed next: entries and their corresponding growth inhibition.
- test_details: NCI Yeast Anticancer Drug Screen. Data for the rad50 strain (AID 155);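 note: 0% = growth of vehicle-only cultures of the same strain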
- test_parameters: S. cerevisiae rad50 strain growth inhibition; at 50.0 µM; hits give high values
Compounds without any hit were thinned out: in the full panel of roughly 79,000, 15% have a hit.
readout_kind: growth inhibition (%)

{"compound": "COC(=O)C1=CO[C@@H](C)[C@@H]2Cn3ccc4c5ccccc5nc-4c3C[C@H]12", "value": 2.4}
{"compound": "O=C(NNC(=S)S)c1ccncc1", "value": 7.5}
{"compound": "CCSCC1C(=O)C23C(O)C1CCC2C12COC3(O)C(O)C1C(C)(C)CCC2O (stereo unspecified)", "value": 16.6}
{"compound": "COc1ccc(OC)c(NC(=O)c2ccccc2Cl)c1", "value": -4.85}
{"compound": "c1ccc2c3c(ccc2c1)CCCC3", "value": 7.5}
{"compound": "Nc1ccc2c(c1)C(=O)CCCC2", "value": 1.55}

----------
- test_details: NCI Yeast Anticancer Drug Screen. Data for the cln2 rad14 strain (AID 165);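 note: 0% = growth equal to vehicle treated cultures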
- test_parameters: S. cerevisiae cln2 rad14 strain, at 50.0 µM, hits give high values
This is part of a sample that, as a whole, favours compounds with a hit. Of some 79,000 tested, about 15% had one in any assay.
readout_kind: growth inhibition (%)

{"compound": "CCc1ccc(Cc2ccc(CC)c(NC(=O)C(=O)C3NC(=S)NC3=O)c2CC)c(CC)c1NC(=O)C(=O)C1NC(=S)NC1=O (stereo not drawn)", "readout_kind": "growth inhibition", "unit_descriptor": "%", "value": 5.1}
{"compound": "CN(C)C1C(CO)OC(n2cnc3c(N)ncnc32)C1O (stereo not drawn)", "readout_kind": "growth inhibition", "unit_descriptor": "%", "value": 22}
{"compound": "COC(=O)c1nc(N)nc(C(=O)OC)c1C(=O)c1ccco1", "readout_kind": "growth inhibition", "unit_descriptor": "%", "value": -3.7}

----------
Listed next: entries and their corresponding growth inhibition.
- test_details: NCI Yeast Anticancer Drug Screen. Data for the cln2 rad14 strain (AID 165);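 note: 0% = growth equal to vehicle treated cultures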
- test_parameters: S. cerevisiae cln2 rad14 strain, at 50.0 µM, hits give high values
Compounds without any hit were thinned out: in the full panel of roughly 79,000, 15% have a hit. The source made the active and inactive calls. Cut-off read from the data, not from the text of the source: active = growth inhibition above about 70%; inactive = the rest.
readout_kind: growth inhibition

{"molecule": "O=C1c2ccccc2-c2nnsc21", "readout_kind": "growth inhibition", "value": "-12.6% (inactive)"}
{"molecule": "COc1ccc(OC)c(C(N)=O)c1", "readout_kind": "growth inhibition", "value": "0.95% (inactive)"}
{"molecule": "O=C(O)CC1(c2ccccc2)CCCCC1", "readout_kind": "growth inhibition", "value": "-6.2% (inactive)"}
{"molecule": "C[CH2][Ge]([CH2]C)[CH2]C.C[CH2][Ge]([Cl])[CH2]C", "readout_kind": "growth inhibition", "value": "-10.2% (inactive)"}
{"molecule": "N#CCCC(CC#N)S(=O)(=O)O (configuration not stated)", "readout_kind": "growth inhibition", "value": "-54.6% (inactive)"}
{"molecule": "CC1CCC(C(C)C)=C(C2CCCCC2)C1 (configuration not stated)", "readout_kind": "growth inhibition", "value": "-7.05% (inactive)"}
{"molecule": "CN(c1nc(=[N+](C)C)ss1)C1CCCCC1", "readout_kind": "growth inhibition", "value": "-39.5% (inactive)"}

----------
Listed next: entries and their corresponding growth inhibition.
- test_details: NCI Yeast Anticancer Drug Screen. Data for the mlh1 rad18 strain (AID 175)
- test_parameters: S. cerevisiae mlh1 rad18 strain growth inhibition; at 50.0 µM; hits give high values
The panel holds about 79,000 compounds, 15% with a hit somewhere; the sample as a whole holds those more often.

{"molecule": "COc1cccc(C(=O)O)c1O", "unit_descriptor": "%", "growth inhibition": -7.7}
{"molecule": "O=C1O/C(=C(\\Br)c2ccccc2)c2ccccc21", "unit_descriptor": "%", "growth inhibition": 31.6}
{"molecule": "N#CC12CC=C(c3ccccc3)N=C1NC(c1ccccc1)=CC2 (stereo not given)", "unit_descriptor": "%", "growth inhibition": -34.1}
{"molecule": "C[C@@H]1CC[C@@]2(C)C(C(=O)O)=CCCC2[C@@]1(C)CC(=O)c1ccoc1 (stereo not given in full)", "unit_descriptor": "%", "growth inhibition": -35.2}
{"molecule": "CC(=O)c1cc2ccccc2n(O)c1=N", "unit_descriptor": "%", "growth inhibition": -17.3}
{"molecule": "CCCCOC(=O)CCCCCCCCC(=O)OCCCC", "unit_descriptor": "%", "growth inhibition": 28.4}
{"molecule": "CC(C)(C)OC(=O)N1CCc2c([nH]oc2=O)C1", "unit_descriptor": "%", "growth inhibition": -3.8}
{"molecule": "O=C(CCC(=O)Nc1ccc(Cl)c(Cl)c1)CC(=O)c1ccc2ccccc2c1", "unit_descriptor": "%", "growth inhibition": -12.1}
{"molecule": "Cc1cccc(N2CCC(O)C2)c1 (stereo not given)", "unit_descriptor": "%", "growth inhibition": -21.1}
{"molecule": "Nc1c(Cl)ncnc1NCCCCCO", "unit_descriptor": "%", "growth inhibition": -1.95}
{"molecule": "CC(=O)Nc1ccc(F)cc1", "unit_descriptor": "%", "growth inhibition": -13.1}
{"molecule": "O=C(/C=C/c1ccc2c(c1)OCO2)C1CC1", "unit_descriptor": "%", "growth inhibition": 16.9}
{"molecule": "O=C(NCC1CC1)c1ccccc1NC(=O)c1cc2ccccc2oc1=O", "unit_descriptor": "%", "growth inhibition": 19.8}
{"molecule": "CC1=C(C(=O)O)C(C)CC(=O)N1 (stereo not given)", "unit_descriptor": "%", "growth inhibition": 7.9}
{"molecule": "Cc1cc(O)oc(=O)c1", "unit_descriptor": "%", "growth inhibition": -4.85}
{"molecule": "O=C(/C=C/c1ccccc1)c1cccc([N+](=O)[O-])c1", "unit_descriptor": "%", "growth inhibition": 4.4}
{"molecule": "CCCCCN(CCCCC)C(=O)C(C)Br (stereo not given)", "unit_descriptor": "%", "growth inhibition": 3.1}
{"molecule": "COC(=O)N/N=C(/CC1(O)C(=O)Nc2ccc([N+](=O)[O-])cc21)c1ccccc1 (stereo not given)", "unit_descriptor": "%", "growth inhibition": 40.8}
{"molecule": "CCCCCCCCCCC1SCC(=O)N1c1nncs1 (stereo not given)", "unit_descriptor": "%", "growth inhibition": 4.25}
{"molecule": "CCCC1(CCC)OC(=O)C(CC)(CC)C(=O)O1", "unit_descriptor": "%", "growth inhibition": -6}
{"molecule": "CCCCCCCCCCCCNc1ncnc2c1cnn2C", "unit_descriptor": "%", "growth inhibition": -25.2}
{"molecule": "C(=C(c1ccccc1)c1ccccc1)N1CCOCC1", "unit_descriptor": "%", "growth inhibition": 1.2}
{"molecule": "Cc1ccc(NC(=O)OCCOc2c(C(C)C)cccc2C(C)C)c([N+](=O)[O-])c1", "unit_descriptor": "%", "growth inhibition": 18.4}
{"molecule": "O=C(c1ccccc1)c1cc(Cl)ccc1NCn1nnc2ccccc21", "unit_descriptor": "%", "growth inhibition": -30.1}
{"molecule": "O=c1[nH]cc(CCOCc2ccccc2)c(=O)[nH]1", "unit_descriptor": "%", "growth inhibition": -17}
{"molecule": "Oc1c(Cl)cc(N=Cc2ccc(N(CCCCl)CCCCl)cc2Cl)cc1Cl", "unit_descriptor": "%", "growth inhibition": 84}
{"molecule": "COc1ccc(CC(=O)NCCc2ccc(OC)c(OC)c2OC)cc1", "unit_descriptor": "%", "growth inhibition": -32.8}
{"molecule": "COc1ccc(S(=O)(=O)/N=C(/C2CC3=CCC4C5CCC(=O)C5(C)CC(=O)C4C3(C)C2)N2CCCC2)cc1 (stereo not given)", "unit_descriptor": "%", "growth inhibition": -18}
{"molecule": "CCOC(=O)c1[nH]c(C(=O)O)c(C(=O)OCC)c1C", "unit_descriptor": "%", "growth inhibition": -10.1}
{"molecule": "Cc1nn(-c2ccccc2)c(SC(C)(C)C)c1C=NCCN=Cc1c(C)nn(-c2ccccc2)c1SC(C)(C)C", "unit_descriptor": "%", "growth inhibition": 18.8}
{"molecule": "CC(C)(C)CP(=S)(CCP(CCP(=S)(CC(C)(C)C)CC(C)(C)C)CCP(=S)(CC(C)(C)C)CC(C)(C)C)CC(C)(C)C", "unit_descriptor": "%", "growth inhibition": -16.1}
{"molecule": "[N-]=[N+]=Nc1cc(=O)n(-c2ccccc2)c2ccccc12", "unit_descriptor": "%", "growth inhibition": -22.3}
{"molecule": "CC([C@H](c1ccccc1)C1CCC(C(N)=O)(N2CCOCC2)C1)[N+](=O)[O-] (stereo not given in full)", "unit_descriptor": "%", "growth inhibition": 9.85}
{"molecule": "COc1nc(NC2OC(COC(C)=O)C(OC(C)=O)C(OC(C)=O)C2OC(C)=O)c(C(=O)CCl)c(=O)[nH]1 (stereo not given)", "unit_descriptor": "%", "growth inhibition": 13.7}
{"molecule": "CCOCCOCCOC(=O)C(C)O (stereo not given)", "unit_descriptor": "%", "growth inhibition": -3.4}
{"molecule": "CCN(CC)CCSC(=O)C(O)(c1ccccc1)c1cccc(C)c1 (stereo not given)", "unit_descriptor": "%", "growth inhibition": 10.6}
{"molecule": "COC1OC(CO)C(O)C(O)C1Br (stereo not given)", "unit_descriptor": "%", "growth inhibition": 21.2}
{"molecule": "N#CCCC(CC#N)N1CCN(C(CC#N)CCC#N)CC1 (stereo not given)", "unit_descriptor": "%", "growth inhibition": -19.4}
{"molecule": "O=[N+]([O-])c1ccc(-c2csc(N=Nc3c(O)[nH]c4ccccc34)n2)cc1", "unit_descriptor": "%", "growth inhibition": -46.4}
{"molecule": "CCOC(C[N+](C)(C)C)OCC", "unit_descriptor": "%", "growth inhibition": 0.3}
